# test.details: folding stability dG unfold from chymotrypsin proteolysis; higher = more stable
Mark -1 for folding stability dG unfold values under 4 kJ/mol, and 1 for everything at or above.

{"seq": "SAGGMEVEITIVVPPGASLEEIEELARKLAEELGLSVENIKVTVIVVEPEEEEEEEEEKKLKEEEEKSAGGS [r16_240_TrROS_Hall]", "category.label": 1}
{"seq": "SAGGSAGGAPVYVTTDTRERADPNGSTVRTSLVRDPNGPATYRVTETVPPDGSVASTTTAVPGASAGGSAGG [r6_839_JUSTAS]", "category.label": -1}
{"seq": "SAGPPGQPIKPIDITVKPEENTITIKFGDKNLEIPIPPGVEADIWVYPDHIVITIEFPDGKIVTIVLPFSAG [r5_21_TrROS]", "category.label": 1}
{"seq": "SSAEELARRLAAELAERLPPGARITDVRIERRADGTVTITVTVELPDGRTLTVTITLDLATGEITIEIHPSA [r9_219_TrROS_Hall]", "category.label": 1}
{"seq": "SAGGMMIVIRIPNKPVEFEINGWKIEYNPDEGTIIIPFPPEMLDQLEKLPGLEGIKDIEIIPPGELKSAGGS [r8_493_TrROS]", "category.label": 1}
{"seq": "SAGGSASMRTVTLTSTETLELKDPSGNLRVETTPVVVTVPVEVPDPNLPPPAVNSPVLTELLLRLLSAGGSA [r15_728_JUSTAS]", "category.label": -1}
{"seq": "SAGGREITIMIWMPLEDMEEFANEIANALAAEGYKVKDIEIQFKVIPDPENGRPWVMFMIEVEIEPPSAGGS [r8_475_TrROS]", "category.label": 1}
{"seq": "SAGGSAGGSITVEVEVEIVDEVEDPNTQGYRPVRVSRIPITIPVPESWSEEDIEAAVKEAIEKASAGGSAGG [r6_494_JUSTAS]", "category.label": 1}
{"seq": "SAGGSAKPKRFVALIKLKGPEGKEIAEIPIVISPDKPEVDIDEIAREIAEKLGVEEIEAEIKEIEESAGGSA [r15_333_TrMRF]", "category.label": -1}
{"seq": "SAGGSAGGSAGMLSVTELSTEEKGSLVTTTTRATVGSTTVTTTTTTFVPRSTALLNPDRGSAGGSAGGSAGG [r11_213_JUSTAS]", "category.label": -1}
{"seq": "SKTVVIAADPNNPEAIKKAIEEAPPDTTIVIVVPLENGEYPKVTITRKPPEVPPIPPELLSEEEIKELLPSA [r9_1103_TrMRF]", "category.label": -1}

====

# test.details: folding stability dG unfold (combined trypsin and chymotrypsin); higher = more stable
Entry flag: 1 if folding stability dG unfold reaches 2 kcal/mol; 0 if it does not.

{"seq": "SAGGSAGGSAGGMAENLSPEQLRELAKELGLSEEDLEPGQVVRFRLPNGEVIEVRVEDESAGGSAGGSAGGS [r10_623_TrROS_Hall]", "category.label": 0}
{"seq": "SAGGDKNAKPIKPITISFTLEDGSKKTITATFYKDAVIVEITYINPKTGKPFTKTFVFKKKGVKLLLSAGGS [r16_419_TrMRF]", "category.label": 1}
{"seq": "SAGGSAGGSAGVPEGEEYLFTVKVTLTFEPVTVKDENGEEHEIDEVTITVTVTVLVKAEDSAGGSAGGSAGG [r11_907_TrROS_Hall]", "category.label": 1}
{"seq": "SMMYLVNLRVEVYKDGKLVEEKEIAIAAPVEEALKIAEAIKESHPDAEVKVEIEVYEIPEDDPEFKEAFASA [r9_782_TrMRF]", "category.label": 1}
{"seq": "SAGGMIPEELIRKLFEDGKPVPLEQIVELIEKLTGRPVRLEEGEDKFRIVVLDPDTPELLDEIEIDFSAGGS [r8_105_TrMRF]", "category.label": 0}
{"seq": "SAGGSAGGSVVPVKAVFKLPDGDEVEGLALVDNRPDGSLVVLFQLPGTGETVGSATAELLKVEGSAGGSAGG [r6_254_TrMRF]", "category.label": 0}
{"seq": "SAGGPYMEIQFPMPEDQVRPALEKAADEWGMEVKEINYHPNNGMVTITVNDNMPPNRIRKAIEKVLKSAGGS [r8_338_TrROS]", "category.label": 0}

====

# test.details: folding stability dG unfold (combined trypsin and chymotrypsin); higher = more stable
observed.property: folding stability dG unfold

{"seq": "SAGGSAGGSAGTATLELTVGGKKATATVEPDPDSPAPVVTVKVGDKPVVLNPDGTWTPADSAGGSAGGSAGG [r11_732_TrMRF]", "observed.property": "folding stability dG unfold", "endpoint.result": "< -1 kcal/mol"}
{"seq": "SAGGMPIKPKVELEPLEDAYLVRVRFEAPDRPIEIRRAFASFPDAVREAEEIARFLEEAEIPSPEGGSAGGS [r16_24_TrMRF]", "observed.property": "folding stability dG unfold", "endpoint.result": "< -1 kcal/mol"}
{"seq": "SAGGSAGGSAGGKITEVDTSNNMVEITLKHPGGKRERPIDPGKTMAQILDELKENPDLVISAGGSAGGSAGG [r7_373_TrROS]", "observed.property": "folding stability dG unfold", "endpoint.result": "< -1 kcal/mol"}

====

# test.details: folding stability dG unfold from chymotrypsin proteolysis; higher = more stable
Criterion: folding stability dG unfold meeting or surpassing 3 kcal/mol. Met: true. Not met: false.

{"seq": "SAGGSAGGSAGGSKKVIEVPAKDLTPEQLKKLAKEGETIEITFPNGEKKEIPAEKLKPKSAGGSAGGSAGGS [r4_382_TrROS_Hall]", "category.label": "false"}
{"seq": "SAMKVKVIVINPDGKPQEFEFEAEEGDPEKLVEEVEAEIKKLHPNSDIKFKAEVLEVKPDGEITILVSDSAG [r14_622_TrMRF]", "category.label": "false"}
{"seq": "SMKIKIEKVEDGYYKIKIYDKKTKKEYTIIVPKNMKPGQVELVNRNGKKITMTLEEIKKLLPPGAEVEIVSA [r9_250_TrROS_Hall]", "category.label": "false"}
{"seq": "SAGGSARWFLIRIEFVFGGEPRTFSVLIDVDPGEIEIEIPPELQKKGFQIKDIEIWPLPPEDLKKLSAGGSA [r15_853_TrROS]", "category.label": "true"}
{"seq": "SAGGSAGGSMTVTVRRVYFPPNLAEGMTVEELRKKLGVPDLPVLVVDVEVTLTPEELEALLKESAGGSAGGS [r12_178_TrMRF]", "category.label": "false"}
{"seq": "SAGDWIREAIKKAGYDNVEIEEIQPNPNGGVSIVIQPSPGMPREQQRRAQEEIVDALREESPDFKIHIHSAG [r5_101_TrROS]", "category.label": "false"}
{"seq": "SAGGSAGGKETKTITMIIKVKDENGKELKAGDKVEIEINGKKITIEVTYNKKTGYLVVKATIKPSAGGSAGG [r6_657_TrROS_Hall]", "category.label": "true"}
{"seq": "SAGGSAGGSPNQDFKVKVKIKEFNPGNGHIRIDVEVEGDNPQVQDFAKGIAEGFGFPVEVEPISAGGSAGGS [r20_157_TrROS]", "category.label": "false"}
{"seq": "SEFPESVPVDWVERELTFSSSSKEELEKKIKELLKNIEIEVSYDPKTNKYTLKIKFPSKEKAEKVEELLSSA [r9_764_JUSTAS]", "category.label": "true"}
{"seq": "SAGGWVKDPDGQTVEMKVLDPGMNKDNAKPFADNIAEQLHRQHGMNPNNVKVKVETDPENGTVRVKVKSAGG [r13_913_TrROS]", "category.label": "false"}
{"seq": "SAGMVTYTVTVPYAPAGKRVRVTLFDEGKEIASFEGVENAPYNQTFTFTAPPFTIRIEYEDGSVDPLPASAG [r5_646_TrMRF]", "category.label": "true"}
{"seq": "SAGGSAGGSAGSMLTTTLPNGTPVTREFDIQDVEPKGDVIKVVITNPTGGEVPASTVIGPVNSAGGSAGGSA [r18_163_JUSTAS]", "category.label": "false"}
{"seq": "SAGGSAGGKRTVQIQFPMGPQWLDKLRDAFPNVDIEELEYDEGPGWHRIKIKVDSPEKIRDFIKSAGGSAGG [r6_334_TrROS]", "category.label": "false"}

====

# test.details: folding stability dG unfold from chymotrypsin proteolysis; higher = more stable
Kindly note that classification relies on folding stability dG unfold with these boundaries: lower level = under 0.8 kcal/mol, middle level = from 0.8 kcal/mol up to 3 kcal/mol, upper level = 3 kcal/mol and over

{"seq": "SAGGSAGGSAGGGMTTTYTTETIEAPDGTVVIKKTTTYDYGNGSLTKPTIYNPDGTPIGSAGGSAGGSAGGS [r10_1056_JUSTAS]", "category.label": "lower level"}
{"seq": "SAGGSAGGSAGGMTYVTVTLKEGDTEVTLTFPLEKLPEVVPEPGIEILEVETSPLDPELLSAGGSAGGSAGG [r17_204_JUSTAS]", "category.label": "lower level"}
{"seq": "SAGGSAGGSPMKIEAVELEDGTVAYRLEDGTVLLVTKNEDGTYTVKVFKNGKLVEEKEIKLPPSAGGSAGGS [r12_451_TrROS_Hall]", "category.label": "upper level"}
{"seq": "SAGGSAGGSAGMSTTPVAYKFTFTLPGGETLEREGTDVAALKEALKAEYGAVEITVTPVSSAGGSAGGSAGG [r17_508_JUSTAS]", "category.label": "middle level"}
{"seq": "SAGGSEIKIEIKYDEETGELVVEITVPESEEEVKKLVEELKKLGVEKVEIVRDKKTKEYRIRVVFKSAGGSA [r2_358_TrROS_Hall]", "category.label": "upper level"}
{"seq": "SAGGSAGGSAGYESVVNELKRKGYKVEVKKTPDGTYVVTVTKKDGTVETITLGPEGGKISSAGGSAGGSAGG [r17_503_JUSTAS]", "category.label": "upper level"}
{"seq": "SAGGSAGGSAGGKKPITLTVLVTDPDGYLLQRTTTLTLDEDTNELTATTTVTRIPLEDLSAGGSAGGSAGGS [r10_1225_TrROS_Hall]", "category.label": "middle level"}
{"seq": "SAGKKKKIKIKVKIIVNGKLKEIEIEVDENKTLEEILAEIKKKLPKNAIIIITNENGEKKIIILPKEELSAG [r5_77_TrROS_Hall]", "category.label": "middle level"}
